Tested on: Escherichia coli
Experiment: Inhibition of LuxR-dependent quorum sensing activity in Escherichia coli MT102 harboring pJBA132 assessed as inhibition of OHHL-induced GFP expression at 2 mM measured after 24 hrs by fluorescence assay relative to control
# if value of inhibition reaches 30%, tag 1 (yes); if it stays below, tag 0 (no)

// inclusive: inhibition at least 30%? input: CC(=O)OC[C@H]1O[C@@H](OC(C)=O)[C@H](NC(=O)CCc2c[nH]c3ccccc23)[C@@H](OC(C)=O)[C@@H]1OC(C)=O 0 (no)

Is the recorded value of inhibition equal to or greater than 30% for this molecule? O=C(Cc1ccc(Cl)cc1)N[C@@H]1[C@@H](O)[C@H](O)[C@@H](CO)O[C@H]1O 0 (no)

Test whether the molecule CCCC(=O)N[C@@H]1[C@@H](O)[C@H](O)[C@@H](CO)O[C@H]1O records inhibition of 30% or higher. 1 (yes)

Can CC(=O)OC[C@H]1O[C@@H](OC(C)=O)[C@H](NC(=O)CC(=O)CCCc2ccccc2)[C@@H](OC(C)=O)[C@@H]1OC(C)=O be said to have inhibition at or above 30%? 1 (yes)

Say whether CCCCCCCC(=O)N[C@H]1[C@H](OC(C)=O)O[C@H](COC(C)=O)[C@@H](OC(C)=O)[C@@H]1OC(C)=O shows inhibition of 30% or more. 0 (no)

###

Tested on: Pseudomonas aeruginosa
Test: Growth inhibition of Pseudomonas aeruginosa MH602 at 2 mM after 24 hrs relative to control
Details: MH602, 24 h, read-out: GI
metricName: inhibition at 2000 µM (%)
Quick note: give the figure in %, leave out the unit.

Sample CCCCCCCCCCCC(=O)N[C@@H]1[C@@H](O)[C@H](O)[C@@H](CO)O[C@H]1O ; inhibition at 2000 µM observed: 28.7

# compound CCCCCC(=O)N[C@@H]1[C@@H](O)[C@H](O)[C@@H](CO)O[C@H]1O ; its inhibition at 2000 µM = 3.1

# inhibition at 2000 µM of CCCCCCCCCC(=O)N[C@@H]1[C@@H](O)[C@H](O)[C@@H](CO)O[C@H]1O = 0

# compound CC(=O)OC[C@H]1O[C@@H](OC(C)=O)[C@H](NC(=O)CC(=O)CCCc2ccccc2)[C@@H](OC(C)=O)[C@@H]1OC(C)=O ; its inhibition at 2000 µM = 0

Item: CCCCCCCC(=O)N[C@@H]1[C@@H](O)[C@H](O)[C@@H](CO)O[C@H]1O | inhibition at 2000 µM: 65.4

Per the records, this compound ( O=C(Cc1ccc(F)cc1)N[C@@H]1[C@@H](O)[C@H](O)[C@@H](CO)O[C@H]1O ) has inhibition at 2000 µM equal to 0

Entry CCCCCCCCCC(=O)N[C@H]1[C@H](OC(C)=O)O[C@H](COC(C)=O)[C@@H](OC(C)=O)[C@@H]1OC(C)=O , inhibition at 2000 µM reported as 0

Reported inhibition at 2000 µM for CC(=O)OC[C@H]1O[C@@H](OC(C)=O)[C@H](NC(=O)Cc2c[nH]c3ccccc23)[C@@H](OC(C)=O)[C@@H]1OC(C)=O was 4.6

###

Assign inhibition to each entry below.
Test system: Pseudomonas aeruginosa
Assay: Inhibition of LasR-dependent quorum sensing activity in Pseudomonas aeruginosa MH602 harboring GFP-fused […] LasB promoter assessed as inhibition of 3-oxo-dodecanoyl HSL-induced GFP expression at 500 uM measured after 8 hrs by fluorescence assay relative to control
Expressed in %, but write only the number.

Entry CC(=O)OC[C@H]1O[C@@H](OC(C)=O)[C@H](NC(=O)CCCc2ccccc2)[C@@H](OC(C)=O)[C@@H]1OC(C)=O , inhibition reported as 7.3

Reported inhibition ( CC(=O)OC[C@H]1O[C@@H](OC(C)=O)[C@H](NC(=O)Cc2ccc(Cl)cc2)[C@@H](OC(C)=O)[C@@H]1OC(C)=O ) = 1.4

Looking up CCCC(=O)N[C@H]1[C@H](OC(C)=O)O[C@H](COC(C)=O)[C@@H](OC(C)=O)[C@@H]1OC(C)=O , I see its inhibition listed as 3.6

Item: O=C(Cc1ccc(C(F)(F)F)cc1)N[C@@H]1[C@@H](O)[C@H](O)[C@@H](CO)O[C@H]1O | inhibition: 2.4

###

Tested on: Escherichia coli
Assay: Inhibition of LuxR-dependent quorum sensing activity in Escherichia coli MT102 harboring pJBA132 assessed as inhibition of OHHL-induced GFP expression at 2 mM measured after 8 hrs by fluorescence assay relative to control
Returns Y if the recorded inhibition is greater than or equal to 8%, and N otherwise.

Kindly determine if inhibition recorded for CCCC(=O)N[C@H]1[C@H](OC(C)=O)O[C@H](COC(C)=O)[C@@H](OC(C)=O)[C@@H]1OC(C)=O is above or exactly 8%. N

Please tell me: is the compound O=C(Cc1ccc(Cl)cc1)N[C@@H]1[C@@H](O)[C@H](O)[C@@H](CO)O[C@H]1O at or over 8% in terms of inhibition? N

In plain terms: is recorded inhibition at least 8% for CC(=O)OC[C@H]1O[C@@H](OC(C)=O)[C@H](NC(=O)CC(=O)CCCc2ccccc2)[C@@H](OC(C)=O)[C@@H]1OC(C)=O ? Y

Is inhibition at least 8%? Consider CC(=O)N[C@@H]1[C@@H](O)[C@H](O)[C@@H](CO)O[C@H]1O [N-ACETYLGLUCOSAMINE] Y

Threshold query (inhibition >= 8%) on CC(=O)OC[C@H]1O[C@@H](OC(C)=O)[C@H](NC(=O)Cc2ccc(Cl)cc2)[C@@H](OC(C)=O)[C@@H]1OC(C)=O N

# check: inhibition of O=C(CCCc1ccccc1)N[C@@H]1[C@@H](O)[C@H](O)[C@@H](CO)O[C@H]1O is greater than or equal to 8% Y

###

Task for the reader: assign each of the following compounds its reported inhibition.
System: Pseudomonas aeruginosa
Assay: Inhibition of LasR-dependent quorum sensing activity in Pseudomonas aeruginosa MH602 harboring GFP-fused […] LasB promoter assessed as inhibition of 3-oxo-dodecanoyl HSL-induced GFP expression at 2 mM measured after 24 hrs by fluorescence assay relative to control
Number only, in %; omit the unit.

Entry COc1ccc(CC(=O)N[C@@H]2[C@@H](O)[C@H](O)[C@@H](CO)O[C@H]2O)cc1 : inhibition on Pseudomonas aeruginosa = 3

I looked up CC(=O)OC[C@H]1O[C@@H](OC(C)=O)[C@H](NC(=O)CCc2c[nH]c3ccccc23)[C@@H](OC(C)=O)[C@@H]1OC(C)=O and its inhibition for Pseudomonas aeruginosa was 7.4

The compound CCCCCC(=O)N[C@H]1[C@H](OC(C)=O)O[C@H](COC(C)=O)[C@@H](OC(C)=O)[C@@H]1OC(C)=O , when measured on Pseudomonas aeruginosa, yielded inhibition of 22.8

Entry CC(=O)OC[C@H]1O[C@@H](OC(C)=O)[C@H](NC(=O)Cc2ccc(Cl)cc2)[C@@H](OC(C)=O)[C@@H]1OC(C)=O under Pseudomonas aeruginosa had inhibition of 16.7

###

Tested on: Pseudomonas aeruginosa
Assay: Inhibition of LasR-dependent quorum sensing activity in Pseudomonas aeruginosa MH602 harboring GFP-fused […] LasB promoter assessed as inhibition of 3-oxo-dodecanoyl HSL-induced GFP expression at 500 uM measured after 24 hrs by fluorescence assay relative to control
metricName: inhibition
Provide the measurement as a number trailed by its unit.

Documented inhibition of CC(=O)OC[C@H]1O[C@@H](OC(C)=O)[C@H](NC(=O)Cc2ccc(C(F)(F)F)cc2)[C@@H](OC(C)=O)[C@@H]1OC(C)=O : 5.9%

Value of measured inhibition for the entry O=C(Cc1ccc(C(F)(F)F)cc1)N[C@@H]1[C@@H](O)[C@H](O)[C@@H](CO)O[C@H]1O : 10.6%

Looking up CC(=O)OC[C@H]1O[C@@H](OC(C)=O)[C@H](NC(=O)Cc2c[nH]c3ccccc23)[C@@H](OC(C)=O)[C@@H]1OC(C)=O , I found its inhibition recorded as 12.1%

For reference, reported inhibition for CC(=O)OC[C@H]1O[C@@H](OC(C)=O)[C@H](NC(=O)Cc2ccc(Br)cc2)[C@@H](OC(C)=O)[C@@H]1OC(C)=O stands at 11.2%

CCCC(=O)N[C@@H]1[C@@H](O)[C@H](O)[C@@H](CO)O[C@H]1O yielded inhibition of 10.7%

Kindly note the recorded inhibition for O=C(Cc1ccc(Cl)cc1)N[C@@H]1[C@@H](O)[C@H](O)[C@@H](CO)O[C@H]1O , which is 7%

// sample CC(=O)OC[C@H]1O[C@@H](OC(C)=O)[C@H](NC(=O)Cc2ccc(Cl)cc2)[C@@H](OC(C)=O)[C@@H]1OC(C)=O , its inhibition was 13.3%

Lab note: CCCCCC(=O)N[C@H]1[C@H](OC(C)=O)O[C@H](COC(C)=O)[C@@H](OC(C)=O)[C@@H]1OC(C)=O gave inhibition of 3.1%

For this compound ( CCCCCC(=O)CC(=O)N[C@H]1[C@H](OC(C)=O)O[C@H](COC(C)=O)[C@@H](OC(C)=O)[C@@H]1OC(C)=O ), measured inhibition is 3.3%
